- experimentalContext: 313.15 K; 101 kPa; Liquid
readoutName: mass density (kg/m3)

>>> numericresult("Cc1ccccc1")
848.92
>>> numericresult("CC(C)O")
766.34
>>> numericresult("CCOC(=O)OCC [diethyl carbonate]")
952.32
>>> numericresult("CO")
772.6

====

- experimentalContext: 333.15 K; 101 kPa; Liquid
readoutName: mass density (kg/m3)

>>> numericresult("CCOC(=O)OCC [diethyl carbonate]")
928.69
>>> numericresult("Cc1ccccc1 [toluene]")
829.93
>>> numericresult("CO [methanol]")
749.69
>>> numericresult("CC(C)O [propan-2-ol]")
745.51

====

// reported viscosity for each item listed
- experimentalContext: 298.15 K; 101 kPa; Liquid; Capillary tube (Ostwald / Ubbelohde) method
Numbers after ± are expanded uncertainties.
readoutName: viscosity

>>> result("CCOC(=O)OCC [diethyl carbonate]")
"0.746 ± 0.008 mPa·s"
>>> result("CC(C)O [propan-2-ol]")
"2.069 ± 0.014 mPa·s"
>>> result("Cc1ccccc1 [toluene]")
"0.554 ± 0.007 mPa·s"
>>> result("CO [methanol]")
"0.55 ± 0.007 mPa·s"

====

- experimentalContext: 313.15 K; 101 kPa; Liquid; Capillary tube (Ostwald / Ubbelohde) method
// reported viscosity for each item listed
readoutName: viscosity (mPa·s)

>>> numericresult("CO")
0.448
>>> numericresult("CCOC(=O)OCC [diethyl carbonate]")
0.61
>>> numericresult("CC(C)O")
1.288
>>> numericresult("Cc1ccccc1")
0.47

====

- experimentalContext: 323.15 K; 101 kPa; Liquid; Capillary tube (Ostwald / Ubbelohde) method
// reported viscosity for each item listed
readoutName: viscosity (mPa·s)

>>> numericresult("Cc1ccccc1 [toluene]")
0.423
>>> numericresult("CCOC(=O)OCC [diethyl carbonate]")
0.541
>>> numericresult("CO [methanol]")
0.395
>>> numericresult("CC(C)O [propan-2-ol]")
1.002

====

- experimentalContext: 333.15 K; 101 kPa; Liquid; Capillary tube (Ostwald / Ubbelohde) method
Numbers after ± are expanded uncertainties.
// reported viscosity for each item listed
readoutName: viscosity

>>> result("CCOC(=O)OCC [diethyl carbonate]")
"0.483 ± 0.007 mPa·s"
>>> result("CC(C)O")
"0.789 ± 0.008 mPa·s"
>>> result("Cc1ccccc1")
"0.385 ± 0.007 mPa·s"
>>> result("CO")
"0.351 ± 0.007 mPa·s"

====

- experimentalContext: 303.15 K; 101 kPa; Liquid; Capillary tube (Ostwald / Ubbelohde) method
// reported viscosity for each item listed
readoutName: viscosity (mPa·s)

>>> numericresult("CO [methanol]")
0.512
>>> numericresult("CC(C)O [propan-2-ol]")
1.743
>>> numericresult("Cc1ccccc1 [toluene]")
0.525
>>> numericresult("CCOC(=O)OCC [diethyl carbonate]")
0.695

====

- experimentalContext: 298.15 K; 101 kPa; Liquid
Numbers after ± are expanded uncertainties.
// reported mass density for each item listed
readoutName: mass density

>>> result("CC(C)O [propan-2-ol]")
"780.69 ± 2.8 kg/m3"
>>> result("CCOC(=O)OCC [diethyl carbonate]")
"968.97 ± 1.1 kg/m3"
>>> result("Cc1ccccc1 [toluene]")
"862.01 ± 2 kg/m3"
>>> result("CO [methanol]")
"786.83 ± 2.8 kg/m3"

src = the NIST ThermoML archive (doi:10.1021/je050414d)
